measurement name: melting point

Solved cases (4 shown):
{"compound": "C[S+]([O-])c1c(C(=N)NO)nn(-c2c(Cl)cc(OC(F)(F)F)cc2Cl)c1N (centres unmarked) [Compound 45]", "melting point": "198 to 200 °C"}
{"compound": "CSc1c(C=NO)nn(-c2c(Cl)cc(C(F)(F)F)cc2Cl)c1C [Compound 29]", "melting point": "160 to 162.5 °C"}
{"compound": "C[S+]([O-])CCNc1c([S+](C)[O-])c(C(=N)NO)nn1-c1c(Cl)cc(C(F)(F)F)cc1Cl (centres unmarked) [Compound 65]", "melting point": "150 to 151 °C"}
{"compound": "CCOC(=O)C(C)C(=O)ON=Cc1nn(-c2c(Cl)cc(C(F)(F)F)cc2Cl)c(N)c1[S+](C)[O-] (centres unmarked) [Compound 13]", "melting point": "52 to 54 °C"}

# input compound: C#CCNc1c([S+](C)[O-])c(C(=N)NO)nn1-c1c(Cl)cc(C(F)(F)F)cc1Cl (centres unmarked) [Compound 67] ; wanted: its melting point
194 to 196 °C

// next record CC[S+]([O-])c1c(C=NO)nn(-c2c(Cl)cc(OC(F)(F)F)cc2Cl)c1N (centres unmarked) [Compound 37]
204 to 206 °C

Try the compound CC[S+]([O-])c1c(C(=N)NO)nn(-c2c(Cl)cc(C(F)(F)F)cc2Cl)c1N (centres unmarked) [Compound 42]
186 to 189 °C

One more compound: C[S+]([O-])c1c(C=NO)nn(-c2c(Cl)cc(C(F)(F)F)cc2Cl)c1N (centres unmarked) [Compound 1]
219 to 221 °C (dec.)

----------
measurement name: melting point

{"molecule": "C[S+]([O-])c1c(C(=N)NN)nn(-c2c(Cl)cc(C(F)(F)F)cc2Cl)c1N (stereo not shown)", "val": "210 °C"}
{"molecule": "CN=C(NOC)c1nn(-c2c(Cl)cc(C(F)(F)F)cc2Cl)c(N)c1[S+](C)[O-] (stereo not shown)", "val": "139 to 142 °C"}

Any idea what its melting point is? The molecule is Nc1c(SC(F)F)c(C=NO)nn1-c1c(Cl)cc(C(F)(F)F)cc1Cl
146 to 152 °C

Ok, now C[S+]([O-])c1c(C=NO[Si](C)(C)C(C)(C)C)nn(-c2c(Cl)cc(C(F)(F)F)cc2Cl)c1N (stereo not shown)
150 to 154 °C
